Quick list: Cell viability at 1000 nM (%) per entry.
- Tested on: MRC5 cells
- assay-method-text: Cell viability assay in MRC5 cells (MTT)
- condition-notes: 1000 nM
Please respond with the number in % and leave the unit unwritten.

Guide cases for Cell viability at 1000 nM (%), answers given:
COC(=O)c1cc2c(cc1C)/C(=C(/Nc1ccc(C(=O)N(C)OCCN3CCNCC3)cc1)c1ccccc1)C(=O)N2 [Example 57] : 91.2
COC(=O)c1cc2c(cc1C)/C(=C(/Nc1ccc(C(=O)NOCCN(C)C)cc1)c1ccccc1)C(=O)N2 [Example 26] : 88

Now take the following molecule into account.
Could you tell me which Cell viability at 1000 nM (%) is on file for COC(=O)c1cc2c(cc1C)/C(=C(/Nc1ccc(C(=O)NOC3CCN(C)CC3)c(C)c1)c1ccccc1)C(=O)N2 [Example 31] ?
95.7

* * *

- assay-method-text: Pharmacokinetic measurements in rats (intravenous and intra-tracheal dosing)
- Type: in vivo
- condition-notes: male, CD, plasma, iv; rat, i.v. dosing; read-out: t½ (converted)
measure-name: half-life (h)
Please respond with the number in h and leave the unit unwritten.

Could you tell me which half-life is on file for COC(=O)c1cc2c(cc1C)/C(=C(/Nc1ccc(C(=O)NOCCN3CCN(C)CC3)cc1)c1ccccc1)C(=O)N2 ?
8.1

Would you kindly repeat that for COC(=O)c1ccc2c(c1)NC(=O)/C2=C(\Nc1ccc(C(=O)NOCCN2CCN(C)CC2)cc1)c1ccccc1 ?
2.2

Would you kindly repeat that for COC(=O)c1ccc2c(c1)NC(=O)/C2=C(\Nc1ccc(C(=O)NOCCN(C)C)cc1)c1ccccc1 ?
3.1

Would you kindly repeat that for COC(=O)c1cc2c(cc1C)/C(=C(/Nc1ccc(C(=O)NOCCN(C)C)c(C)c1)c1ccccc1)C(=O)N2 ?
7.6

* * *

Quick list: Lung conc i.t./i.v. Ratio at time (h) per entry.
- assay-method-text: Pharmacokinetic measurements in rats (intravenous and intra-tracheal dosing)
- Format: in vivo
- condition-notes: rat, 24 h
In your answer, state the number alone without any accompanying words.

Guide cases for Lung conc i.t./i.v. Ratio at time (h), answers given:
COC(=O)c1cc2c(cc1C)/C(=C(/Nc1ccc(C(=O)NOCCN3CCN(CCO)CC3)cc1)c1ccccc1)C(=O)N2 : 17
COC(=O)c1ccc2c(c1)NC(=O)/C2=C(\Nc1ccc(C(=O)NOCCN2CCN(C)CC2)cc1)c1ccccc1 : 18.2
COC(=O)c1cc2c(cc1C)/C(=C(/Nc1ccc(C(=O)NOCCN(C)C)c(C)c1)c1ccccc1)C(=O)N2 : 14.4

Could you tell me which Lung conc i.t./i.v. Ratio at time (h) is on file for COC(=O)c1cc2c(cc1C)/C(=C(/Nc1ccc(C(=O)NOCCN3CCN(C)CC3)cc1)c1ccccc1)C(=O)N2 ?
27.3

Would you kindly repeat that for COC(=O)c1ccc2c(c1)NC(=O)/C2=C(\Nc1ccc(S(=O)(=O)NOCCN(C)C)cc1)c1ccccc1 ?
2.0

Would you kindly repeat that for COC(=O)c1ccc2c(c1)NC(=O)/C2=C(\Nc1ccc(C(=O)NOCCN(C)C)cc1)c1ccccc1 ?
8.8

* * *

Quick list: BAL % administered dose at time (h) per entry.
- assay-method-text: Pharmacokinetic measurements in rats (intravenous and intra-tracheal dosing)
- Format: in vivo
- condition-notes: rat, i.v. dosing, 1.5 h
Please respond with the number in % and leave the unit unwritten.

COC(=O)c1ccc2c(c1)NC(=O)/C2=C(\Nc1ccc(S(=O)(=O)NOCCN(C)C)cc1)c1ccccc1 : 0.02

Now take the following compound into account.
Could you tell me which BAL % administered dose at time (h) is on file for COC(=O)c1ccc2c(c1)NC(=O)/C2=C(\Nc1ccc(N(C)C(=O)CN2CCN(C)CC2)cc1)c1ccccc1 [Nintedanib, reference compound] ?
0.03
